Answer each item with its documented viability, T/C.
System: 843782-103-R-J1-PDC complex spheroid viability
assay-overview: Anticancer human tumor 843782-103-R-J1-PDC patient-derived lung adenocarcinoma cell line growth inhibition [RAS]
experimental-conditions: second compound 0.316 µM; first compound 0.01 µM; stronger effect = lower value
Give just the number in %; leave the unit off.

Input: Form: Entry = CC(C)n1nc(-c2ccc3oc(N)nc3c2)c2c(N)ncnc21 + C=CC(=O)N1CCN(c2nc(OCC3CCCN3C)nc3c(F)c(-c4nc(N)cc(C)c4C(F)(F)F)c(Cl)cc23)C(C)C1 | System = 843782-103-R-J1-PDC complex spheroid viability | viability, T/C = ____
Output: 51

Input: Try O=C(c1ccc(F)c(F)c1Nc1ccc(I)cc1F)N1CC(O)([C@@H]2CCCCN2)C1 + C#Cc1c(F)ccc2cc(O)cc(-c3ncc4c(N5CC6CCC(C5)N6)nc(OCC56CCCN5CC(F)C6)nc4c3F)c12 next.
Output: 90.7

Input: Record: C=CC(=O)N1CCN(c2nc(OCC3CCCN3C)nc3c(F)c(-c4nc(N)cc(C)c4C(F)(F)F)c(Cl)cc23)C(C)C1 (stereo not given) + C#Cc1c(F)ccc2cc(O)cc(-c3ncc4c(N5CC6CCC(C5)N6)nc(OCC56CCCN5CC(F)C6)nc4c3F)c12
Output: 68.1

Input: Please do the same for C=CC(=O)Nc1cc(Nc2nccc(-c3cn(C)c4ccccc34)n2)c(OC)cc1N(C)CCN(C)C + C=CC(=O)N1CCN(c2nc(OCC3CCCN3C)nc3c(F)c(-c4nc(N)cc(C)c4C(F)(F)F)c(Cl)cc23)C(C)C1 as well.
Output: 94

Input: Proceed to C=CC(=O)Nc1cc(Nc2nccc(-c3cn(C)c4ccccc34)n2)c(OC)cc1N(C)CCN(C)C + C#Cc1c(F)ccc2cc(O)cc(-c3ncc4c(N5CC6CCC(C5)N6)nc(OCC56CCCN5CC(F)C6)nc4c3F)c12
Output: 99.4

---

Tested on: 843782-103-R-J1-PDC complex spheroid viability
assay-overview: Anticancer human tumor 843782-103-R-J1-PDC cell line growth inhibition [RAS]; active = viability on the fitted dose curve at most 10% of control; inactive = the rest;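 note: viability read after seven days of compound exposure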
experimental-conditions: second compound 0.003 µM; first compound 3.16 µM
Form entry, call: pick from true (1) for active, false (0) for inactive

Input: How was CC(=O)OC12COC1CC(O)C1(C)C(=O)C(O)C3=C(C)C(OC(=O)C(O)C(NC(=O)OC(C)(C)C)c4ccccc4)CC(O)(C(OC(=O)c4ccccc4)C21)C3(C)C (configuration not stated) + CCn1c(-c2cc(N3CCN(C)CC3)cnc2C(C)OC)c2c3cc(ccc31)-c1csc(n1)CC(NC(=O)C1CC1C)C(=O)N1CCCC(N1)C(=O)OCC(C)(C)C2 classified in this test?
Output: true (1)

Input: Now the same for Cc1nc(N2CCC3(CC2)COC(C)C3N)c(CO)nc1Sc1ccnc(N)c1Cl (configuration not stated) + CCn1c(-c2cccnc2C(C)OC)c2c3cc(ccc31)N1CCOC(CC(NC(=O)C(C(C)C)N(C)C(=O)C3(F)CCN(C(=O)C#CC(C)(C)N(C)C)CC3)C(=O)N3CCCC(N3)C(=O)OCC(C)(C)C2)C1
Output: false (0)

Input: Next up: CC(=O)OC12COC1CC(O)C1(C)C(=O)C(O)C3=C(C)C(OC(=O)C(O)C(NC(=O)OC(C)(C)C)c4ccccc4)CC(O)(C(OC(=O)c4ccccc4)C21)C3(C)C (configuration not stated) + CCn1c(-c2cccnc2C(C)OC)c2c3cc(ccc31)N1CCOC(CC(NC(=O)C(C(C)C)N(C)C(=O)C3(F)CCN(C(=O)C#CC(C)(C)N(C)C)CC3)C(=O)N3CCCC(N3)C(=O)OCC(C)(C)C2)C1
Output: true (1)

Input: // repeat for C[C@@H](NC(=O)c1ncnc(N)c1Cl)c1ncc(C(=O)Nc2cc(C(F)(F)F)c(Cl)cn2)s1 + CCn1c(-c2cc(N3CCN(C)CC3)cnc2C(C)OC)c2c3cc(ccc31)-c1csc(n1)CC(NC(=O)C1CC1C)C(=O)N1CCCC(N1)C(=O)OCC(C)(C)C2 and report
Output: false (0)

Input: Please answer likewise for NC1c2ccccc2OC12CCN(c1cnc3c(N4CCCc5ncccc54)n[nH]c3n1)CC2 (configuration not stated) + CCn1c(-c2cc(N3CCN(C)CC3)cnc2C(C)OC)c2c3cc(ccc31)-c1csc(n1)CC(NC(=O)C1CC1C)C(=O)N1CCCC(N1)C(=O)OCC(C)(C)C2
Output: false (0)

Input: Next entry: CC1(O)CCCC1n1c(=O)c(C(F)F)cc2cnc(NC3CCN(S(C)(=O)=O)CC3)nc21 (configuration not stated) + CCn1c(-c2cc(N3CCN(C)CC3)cnc2C(C)OC)c2c3cc(ccc31)-c1csc(n1)CC(NC(=O)C1CC1C)C(=O)N1CCCC(N1)C(=O)OCC(C)(C)C2
Output: true (1)

Input: Can you check CC(Nc1ccc2c(c1)OCCn1cc(N3C(=O)OCC3C(F)F)nc1-2)C(N)=O (configuration not stated) + CCn1c(-c2cccnc2C(C)OC)c2c3cc(ccc31)N1CCOC(CC(NC(=O)C(C(C)C)N(C)C(=O)C3(F)CCN(C(=O)C#CC(C)(C)N(C)C)CC3)C(=O)N3CCCC(N3)C(=O)OCC(C)(C)C2)C1 next?
Output: false (0)

Input: Further, for CC(Nc1ccc2c(c1)OCCn1cc(N3C(=O)OCC3C(F)F)nc1-2)C(N)=O (configuration not stated) + CCn1c(-c2cc(N3CCN(C)CC3)cnc2C(C)OC)c2c3cc(ccc31)-c1csc(n1)CC(NC(=O)C1CC1C)C(=O)N1CCCC(N1)C(=O)OCC(C)(C)C2 ?
Output: true (1)

Input: Queued: CCC(CC)c1cc(NC2CCC(N)C2)n2nccc2n1 (configuration not stated) + CCn1c(-c2cc(N3CCN(C)CC3)cnc2C(C)OC)c2c3cc(ccc31)-c1csc(n1)CC(NC(=O)C1CC1C)C(=O)N1CCCC(N1)C(=O)OCC(C)(C)C2
Output: true (1)

Input: Follow-up item: CC1(O)CCCC1n1c(=O)c(C(F)F)cc2cnc(NC3CCN(S(C)(=O)=O)CC3)nc21 (configuration not stated) + CCn1c(-c2cccnc2C(C)OC)c2c3cc(ccc31)N1CCOC(CC(NC(=O)C(C(C)C)N(C)C(=O)C3(F)CCN(C(=O)C#CC(C)(C)N(C)C)CC3)C(=O)N3CCCC(N3)C(=O)OCC(C)(C)C2)C1
Output: false (0)

Input: What do we get for CCC(CC)c1cc(NC2CCC(N)C2)n2nccc2n1 (configuration not stated) + CCn1c(-c2cccnc2C(C)OC)c2c3cc(ccc31)N1CCOC(CC(NC(=O)C(C(C)C)N(C)C(=O)C3(F)CCN(C(=O)C#CC(C)(C)N(C)C)CC3)C(=O)N3CCCC(N3)C(=O)OCC(C)(C)C2)C1 ?
Output: true (1)

Input: And C[C@@H](NC(=O)c1ncnc(N)c1Cl)c1ncc(C(=O)Nc2cc(C(F)(F)F)c(Cl)cn2)s1 + CCn1c(-c2cccnc2C(C)OC)c2c3cc(ccc31)N1CCOC(CC(NC(=O)C(C(C)C)N(C)C(=O)C3(F)CCN(C(=O)C#CC(C)(C)N(C)C)CC3)C(=O)N3CCCC(N3)C(=O)OCC(C)(C)C2)C1 ?
Output: false (0)
